The values you see were collected from patent US5098613A.

System: inflammation created by injecting carrageenin into the hind paws of rats
Test: Carrageenin Assay
Assay type: in vivo
Details: Rattus norvegicus, ip, 50 mg/kg i.p., prior to carrageenin injection, read-out: Percent Inhibition (Antiinflammatory Activity in the Carrageenin Assay)
Protocol: The compounds were evaluated for antiinflammatory activity in the test method described by C. A. Winter, Proc. Soc. Exp. Biol. Med., 111, 544 (1962). In this test, inflammation is created by injecting carrageenin into the hind paws of rats. Test compounds are administered prior to injection to determine percent inhibition of the subsequent inflammation in comparison with control animals.
quantity: inhibition in vivo at 50 mg/kg (%)
Give just the number in %; leave the unit off.

What inhibition in vivo at 50 mg/kg value was documented for this compound, `CCc1cc(C(C)=O)c(O)cc1OCCCCC#N` ?
26

* * *

Target: leukotriene B4 specific receptor on the membrane of human neutrophils (Homo sapiens, UniProt Q15722)
Construct: incubating neutrophils (1×10^7 cells) with 0.1-0.2 nM ^3 H-LTB4; endogenous in cells; host or cells: human peripheral blood neutrophils (buffy coats of two blood donors)
Sequence (Q15722 whole entry): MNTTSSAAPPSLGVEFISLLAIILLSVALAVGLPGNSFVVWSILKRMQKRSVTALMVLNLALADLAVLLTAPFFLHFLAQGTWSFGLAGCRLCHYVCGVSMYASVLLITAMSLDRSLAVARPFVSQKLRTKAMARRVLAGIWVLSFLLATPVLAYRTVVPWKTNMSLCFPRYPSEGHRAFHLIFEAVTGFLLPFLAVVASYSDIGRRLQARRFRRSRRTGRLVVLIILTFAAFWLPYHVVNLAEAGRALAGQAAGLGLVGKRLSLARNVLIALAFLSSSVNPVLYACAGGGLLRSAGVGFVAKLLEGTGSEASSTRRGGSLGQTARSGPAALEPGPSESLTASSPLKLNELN
Assay: Inhibition of Binding of ^3 H-LTB4 to Peripheral Human Neutrophils
Details: drug concentration 10^-5 M; 4° C., 10 minutes; read-out: LTB4 Binding Inhibition
Structures can show the parent of a compound that is named as a salt.
Label y when inhibition at 10 µM is at or above 80%; otherwise label n.

# count of solved cases: 5
compound | labelValue
C=CCc1cc(C(C)=O)c(O)cc1OCCCCN1CCOCC1 [Example 75, hydrochloride] | n
C=CCc1cc(C(C)=O)c(O)cc1OCCCCc1nnn(C)n1 | y
CCc1cc(C(=O)c2ccccc2)c(O)cc1OCCCCC#N | n
CCc1cc(C(=O)CCCCC(=O)O)c(O)cc1OCCCCC#N | n
CCc1cc(C(C)=O)c(O)cc1OCCCCCC(C)(C)C(=O)O | y

Item `C=CCc1cc(C(C)=O)c(O)cc1OCCCCCCCCC#N` with inhibition at 10 µM of 80% or above?
y

Item `C=CCc1cc(C(C)=O)c(O)cc1OCCCCCCCC` with inhibition at 10 µM of 80% or above?
n

* * *

Tested on: IL-1 induced T-cell Proliferation
Assay: Anti IL-1 Activity (Thymocyte Assay): suppression of IL-1 induced T-cell proliferation
Format: cell-based, C3H/HeJ male mice
Conditions: 10 mcg/ml, mouse thymocytes, 48 hours, read-out: Percent T-cell suppression
Structures can show the parent of a compound that is named as a salt.
Label t when inhibition at 10 µg/mL is at or above 90%; otherwise label f.

# count of solved cases: 5
molecule | experimentalSystem | labelValue
CCc1cc(C(C)=O)c(O)cc1OCCCCCCC#N | IL-1 induced T-cell Proliferation | t
CCCc1cc(C(C)=O)c(O)cc1OCCCCC(=O)O | IL-1 induced T-cell Proliferation | f
CCc1cc(C(C)=O)c(O)cc1OCCCCCCS(C)(=O)=O | IL-1 induced T-cell Proliferation | f
C=CCc1cc(C(C)=O)c(O)cc1OCCCCc1nn[nH]n1 | IL-1 induced T-cell Proliferation | f
C=CCc1cc(C(C)=O)c(O)cc1OCCCCN(C)C [Example 76, hydrochloride] | IL-1 induced T-cell Proliferation | f

Kindly review the next molecule as well.
Item `CCc1cc(C(C)=O)c(O)cc1OCCCCc1nnnn1C` with inhibition at 10 µg/mL of 90% or above?
f

* * *

System: IL-1 induced T-cell Proliferation
Test: Anti IL-1 Activity (Thymocyte Assay): suppression of IL-1 induced T-cell proliferation
Assay type: cell-based, C3H/HeJ male mice
Conditions: 1 mcg/ml, mouse thymocytes, 48 hours, read-out: Percent T-cell suppression
quantity: inhibition at 1 µg/mL (%)
Give just the number in %; leave the unit off.

Known results for compounds:
compound | quantityUnit | inhibition at 1 µg/mL
CCc1cc(C(=O)c2cccc(C(=O)O)c2)c(O)cc1OCCCCC#N | % | 5
C=CCc1cc(C(C)=O)c(OC)cc1OCCCCC#N | % | 29

What inhibition at 1 µg/mL value was documented for this compound, `C=CCc1cc(C(C)=O)c(O)cc1OCCCCc1nn[nH]n1` ?
7

What inhibition at 1 µg/mL value was documented for this compound, `CCc1cc(C(C)=O)c(O)cc1OCCCCc1nnn(C)n1` ?
36

* * *

Target: leukotriene B4 specific receptor on the membrane of human neutrophils (Homo sapiens, UniProt Q15722)
Construct: incubating neutrophils (1×10^7 cells) with 0.1-0.2 nM ^3 H-LTB4; endogenous in cells; host or cells: human peripheral blood neutrophils (buffy coats of two blood donors)
Test: Inhibition of Binding of ^3 H-LTB4 to Peripheral Human Neutrophils
Conditions: drug concentration 10^-6 M; 4° C., 10 minutes
Label Met when inhibition at 1 µM is at or above 50%; otherwise label Not met.

chemSmiles | labelValue
C=CCc1cc(C(C)=O)c(O)cc1OCC#N | Not met
C=CCc1cc(C(C)=O)c(O)cc1OCc1cccc(C#N)c1 | Met
CCCc1cc(C(C)=O)c(O)cc1OCCCCC#N | Not met
C=CCc1cc(C(C)=O)c(O)cc1OCc1cccc(CC#N)c1 | Not met
CCc1cc(C(C)=O)c(O)cc1OCCCCCC(C)(C)C#N | Met

Item `C=CCc1cc(C(C)=O)c(O)cc1OCCCCC#N` with inhibition at 1 µM of 50% or above?
Met

Item `C=CCc1cc(C(C)=O)c(O)cc1OCCCCc1nnnn1C` with inhibition at 1 µM of 50% or above?
Not met

Item `CCc1cc(C(C)=O)c(O)cc1OCCCCCC(C)(C)c1nn[nH]n1` with inhibition at 1 µM of 50% or above?
Met

Item `CC(=O)c1cc(C=O)c(OCCCCC#N)cc1O` with inhibition at 1 µM of 50% or above?
Not met

Item `CCc1cc(C(C)=O)c(O)cc1OCCCCCCC(=O)NC` with inhibition at 1 µM of 50% or above?
Met

Item `CCc1cc(C(C)=O)c(O)cc1OCCCCCCS(C)(=O)=O` with inhibition at 1 µM of 50% or above?
Met

* * *

Target: leukotriene B4 specific receptor on the membrane of human neutrophils (Homo sapiens)
Construct: incubating neutrophils (1×10^7 cells) with 0.1-0.2 nM ^3 H-LTB4; endogenous in cells; host or cells: human peripheral blood neutrophils (buffy coats of two blood donors)
Experiment: Inhibition of Binding of ^3 H-LTB4 to Peripheral Human Neutrophils
Details: drug concentration 10^-5 M; 4° C., 10 minutes; read-out: LTB4 Binding Inhibition
Where a name gives a salt, the structure may show the parent alone.
Label rule met when inhibition at 10 µM is at or above 70%; otherwise label rule not met.

# count of solved cases: 5
compound | labelValue
CCc1cc(C(C)=O)c(O)cc1OCc1cccc(C(=O)OC)c1 | rule not met
C=CCc1cc(C(C)=O)c(O)cc1OCCCCN(C)C [Example 76, hydrochloride] | rule not met
C=CCc1cc(C(C)=O)c(O)cc1OCCCCCC[S+](C)[O-] (centres unmarked) | rule met
CCCCCc1cc(C(C)=O)c(O)cc1OCCCCC#N | rule not met
CCOC(=O)Cn1nnc(CCCCOc2cc(O)c(C(C)=O)cc2CC)n1 | rule met

Item `CCc1cc(C(C)=O)c(O)cc1OCCCCCC(C)(C)C(N)=O` with inhibition at 10 µM of 70% or above?
rule met

Item `C=CCc1cc(C(C)=O)c(O)cc1OCCCCCC(=O)O` with inhibition at 10 µM of 70% or above?
rule met

Item `C=CCc1cc(C(C)=O)c(O)cc1OCCCCC` with inhibition at 10 µM of 70% or above?
rule not met

* * *

Measured inhibition at 1 µM, listed per entry for reference.
Biological target: leukotriene B4 specific receptor on the membrane of human neutrophils (Homo sapiens, UniProt Q15722)
Construct: incubating neutrophils (1×10^7 cells) with 0.1-0.2 nM ^3 H-LTB4; endogenous in cells; host or cells: human peripheral blood neutrophils (buffy coats of two blood donors)
Assay: Inhibition of Binding of ^3 H-LTB4 to Peripheral Human Neutrophils
Details: drug concentration 10^-6 M; 4° C., 10 minutes
Give just the number in %; leave the unit off.

chemSmiles | reportedValue
C=CCc1cc(C(C)=O)c(O)cc1OCCCCc1nn[nH]n1 | 3

What inhibition at 1 µM value was documented for this compound, `CCc1cc(C(=O)c2cccc(C(=O)O)c2)c(O)cc1OCCCCC#N` ?
20

What inhibition at 1 µM value was documented for this compound, `CCc1cc(C(C)=O)c(O)cc1OCc1cccc(C(=O)O)c1` ?
28

What inhibition at 1 µM value was documented for this compound, `CCc1cc(C(C)=O)c(O)cc1OCCCCCCCC(C)(C)C(=O)N(C)O` ?
59

What inhibition at 1 µM value was documented for this compound, `CCc1cc(C(=O)CCCCC(=O)O)c(O)cc1OCCCCC#N` ?
-2

What inhibition at 1 µM value was documented for this compound, `C=CCc1cc(C(C)=O)c(O)cc1OCCCCCC(N)=O` ?
37

What inhibition at 1 µM value was documented for this compound, `CCc1cc(C(C)=O)c(O)cc1OCCCC(C)(C)c1nnn[nH]1` ?
77

What inhibition at 1 µM value was documented for this compound, `C=CCc1cc(C(C)=O)c(O)cc1OCc1ccccc1` ?
5
